- Test system: Factor 11 activity
- experimentalProtocol: Factor 11 protein activity, F11 assay based on clotting time (Example 45)
- Format: in vivo, cynomolgus monkeys
- measurementConditions: day 8; escalating dose regimen
measuredEndpoint: percent inhibition of Factor 11 activity, relative to PBS control (%)

[
  {
    "substance": "ISIS 416858: MOE gapmer, nucleobases 1275 to 1318 of SEQ ID NO: 1 (Table 8) (antisense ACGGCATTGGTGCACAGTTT; MOE gapmer, wing and gap sizes not given here)",
    "unitTag": "%",
    "measurement": 6
  },
  {
    "substance": "ISIS 416850: MOE gapmer, nucleobases 1275 to 1318 of SEQ ID NO: 1 (Table 8) (antisense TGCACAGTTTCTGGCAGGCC; MOE gapmer, wing and gap sizes not given here)",
    "unitTag": "%",
    "measurement": 8
  },
  {
    "substance": "ISIS 416864: MOE gapmer, nucleobases 1275 to 1318 of SEQ ID NO: 1 (Table 8) (antisense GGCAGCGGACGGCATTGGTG; MOE gapmer, wing and gap sizes not given here)",
    "unitTag": "%",
    "measurement": 7
  },
  {
    "substance": "ISIS 417002: MOE gapmer, nucleobases 1275 to 1318 of SEQ ID NO: 1 (Table 8) (antisense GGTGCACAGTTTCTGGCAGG; MOE gapmer, wing and gap sizes not given here)",
    "unitTag": "%",
    "measurement": 0
  },
  {
    "substance": "ISIS 416838: MOE gapmer, nucleobases 1018 to 1042 of SEQ ID NO: 1 (Table 6) (antisense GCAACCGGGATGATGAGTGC; MOE gapmer, wing and gap sizes not given here)",
    "unitTag": "%",
    "measurement": 3
  }
]

###

Measured ALT, listed per entry for reference.
- experimentalProtocol: Liver function, ALT, AST, bilirubin in cynomolgus monkeys (Example 46)
- Format: in vivo
- measurementConditions: Day −5; plasma
Strand notation (5' to 3'): a small letter for the sugar, then the base; units joined by * are phosphorothioate-linked, units joined directly phosphodiester-linked; [ ] holds rarer units or linkages, { } end groups; capitals alone tell only the bases. e = 2'-O-(2-methoxyethyl) (MOE); [5mC] = 5-methylcytosine; d = 2'-deoxy (DNA)

[
  {
    "substance": "ISIS 445522: 5-8-5 or 6-8-6 MOE microwalk gapmer (Table 44) (antisense eG*e[5mC]*eA*e[5mC]*eA*dG*dT*dT*dT*d[5mC]*dT*dG*dG*e[5mC]*eA*eG*eG*e[5mC])",
    "ALT (IU/L)": 45
  },
  {
    "substance": "ISIS 416850: MOE gapmer, nucleobases 1275 to 1318 of SEQ ID NO: 1 (Table 8) (antisense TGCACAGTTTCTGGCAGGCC; MOE gapmer, wing and gap sizes not given here)",
    "ALT (IU/L)": 42
  },
  {
    "substance": "ISIS 449709: 3-8-3, 4-8-4, 2-10-2, 3-10-3 or 4-10-4 MOE microwalk gapmer (Table 46) (antisense eG*e[5mC]*eA*e[5mC]*dA*dG*dT*dT*dT*d[5mC]*dT*dG*dG*d[5mC]*eA*eG*eG*e[5mC])",
    "ALT (IU/L)": 77
  },
  {
    "substance": "ISIS 416858: MOE gapmer, nucleobases 1275 to 1318 of SEQ ID NO: 1 (Table 8) (antisense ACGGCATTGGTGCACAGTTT; MOE gapmer, wing and gap sizes not given here)",
    "ALT (IU/L)": 66
  },
  {
    "substance": "ISIS 449707: 3-8-3, 4-8-4, 2-10-2, 3-10-3 or 4-10-4 MOE microwalk gapmer (Table 46) (antisense e[5mC]*eA*e[5mC]*eA*dG*dT*dT*dT*d[5mC]*dT*dG*dG*e[5mC]*eA*eG*eG)",
    "ALT (IU/L)": 56
  },
  {
    "substance": "ISIS 449708: 3-8-3, 4-8-4, 2-10-2, 3-10-3 or 4-10-4 MOE microwalk gapmer (Table 46) (antisense eA*e[5mC]*eA*dG*dT*dT*dT*d[5mC]*dT*dG*dG*e[5mC]*eA*eG)",
    "ALT (IU/L)": 54
  }
]

###

- experimentalProtocol: Tolerability in Sprague-Dawley rats: body weight and organ weight (Example 35)
- Type: in vivo
- measurementConditions: 50 mg/kg s.c. twice per week for 6 weeks, vs saline control, normalized to body weight
measuredEndpoint: Percent change in organ weight: Kidney

[
  {
    "substance": "416858 (antisense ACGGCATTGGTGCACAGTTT; 5-10-5 gapmer, further chemistry not given here) [compound 416858]",
    "measuredEndpoint": "Percent change in organ weight: Kidney",
    "measurement": "+5%"
  },
  {
    "substance": "417003 (antisense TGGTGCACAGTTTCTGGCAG; 2-13-5 gapmer chemistry, further chemistry not given here) [compound 417003]",
    "measuredEndpoint": "Percent change in organ weight: Kidney",
    "measurement": "+25%"
  },
  {
    "substance": "416864 (antisense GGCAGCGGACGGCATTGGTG; 5-10-5 gapmer, further chemistry not given here) [compound 416864]",
    "measuredEndpoint": "Percent change in organ weight: Kidney",
    "measurement": "+16%"
  },
  {
    "substance": "416825 (antisense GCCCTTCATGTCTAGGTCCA; 5-10-5 gapmer, further chemistry not given here) [compound 416825]",
    "measuredEndpoint": "Percent change in organ weight: Kidney",
    "measurement": "+25%"
  },
  {
    "substance": "416850 (antisense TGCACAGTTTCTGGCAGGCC; 5-10-5 gapmer, further chemistry not given here) [compound 416850]",
    "measuredEndpoint": "Percent change in organ weight: Kidney",
    "measurement": "+47%"
  },
  {
    "substance": "416892 (antisense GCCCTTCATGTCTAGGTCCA; 3-14-3 chimeric gapmer, further chemistry not given here) [compound 416892]",
    "measuredEndpoint": "Percent change in organ weight: Kidney",
    "measurement": "+32%"
  },
  {
    "substance": "416838 (antisense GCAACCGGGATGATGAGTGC; 5-10-5 gapmer, further chemistry not given here) [compound 416838]",
    "measuredEndpoint": "Percent change in organ weight: Kidney",
    "measurement": "−0.5%"
  },
  {
    "substance": "416925 (antisense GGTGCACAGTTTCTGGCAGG; 3-14-3 gapmer chemistry, further chemistry not given here) [compound 416925]",
    "measuredEndpoint": "Percent change in organ weight: Kidney",
    "measurement": "+48%"
  }
]

###

Measured HCT, listed per entry for reference.
- measurementConditions: mouse, in vivo, sc, 50 mg/kg
e = 2'-O-(2-methoxyethyl) (MOE); d = 2'-deoxy (DNA)

[
  {
    "substance": "ISIS 412223: 5-10-5 MOE gapmer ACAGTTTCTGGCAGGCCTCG (sugars from the 5' end e5 d10 e5, backbone and methylation of C not given here)",
    "HCT": "48%"
  },
  {
    "substance": "ISIS 416862: MOE gapmer, nucleobases 1275 to 1318 of SEQ ID NO: 1 (Table 8) (antisense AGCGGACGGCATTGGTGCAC; MOE gapmer, wing and gap sizes not given here)",
    "HCT": "49%"
  },
  {
    "substance": "ISIS 416848: MOE gapmer, nucleobases 1275 to 1318 of SEQ ID NO: 1 (Table 8) (antisense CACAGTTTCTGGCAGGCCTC; MOE gapmer, wing and gap sizes not given here)",
    "HCT": "47%"
  },
  {
    "substance": "ISIS 416861: MOE gapmer, nucleobases 1275 to 1318 of SEQ ID NO: 1 (Table 8) (antisense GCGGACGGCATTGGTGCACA; MOE gapmer, wing and gap sizes not given here)",
    "HCT": "48%"
  },
  {
    "substance": "ISIS 416864: MOE gapmer, nucleobases 1275 to 1318 of SEQ ID NO: 1 (Table 8) (antisense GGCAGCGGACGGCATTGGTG; MOE gapmer, wing and gap sizes not given here)",
    "HCT": "52%"
  },
  {
    "substance": "ISIS 416855: MOE gapmer, nucleobases 1275 to 1318 of SEQ ID NO: 1 (Table 8) (antisense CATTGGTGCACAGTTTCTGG; MOE gapmer, wing and gap sizes not given here)",
    "HCT": "50%"
  },
  {
    "substance": "ISIS 413482: 5-10-5 MOE gapmer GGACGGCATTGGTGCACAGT (sugars from the 5' end e5 d10 e5, backbone and methylation of C not given here)",
    "HCT": "50%"
  }
]
